- EXPERIMENTAL_SYSTEM: Fibroblast growth factor 22 (Homo sapiens) (UniProt Q9HCT0)
- Sequence (Q9HCT0 whole entry, looked up): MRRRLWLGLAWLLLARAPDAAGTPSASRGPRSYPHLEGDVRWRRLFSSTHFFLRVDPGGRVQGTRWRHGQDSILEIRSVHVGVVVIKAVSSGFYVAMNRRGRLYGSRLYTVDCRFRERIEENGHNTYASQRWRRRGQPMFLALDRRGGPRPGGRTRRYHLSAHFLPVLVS
- PROTOCOL: FGF22 ligand-induced thermal stabilization – biophysical, thermal shift, cherry-pick, FGF22 synaptogenesis inhibitor project, dose response (AID 687022)
- MEASUREMENT_PARAMETERS: recombinant FGF22 thermal shift, SYPRO orange melting
Calls of active or inactive are those of the source.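 The calls were made as follows: active = Fitted curve of melting temperature shift crosses the 1.0 threshold at or below the sample's highest valid tested concentration; inconclusive = Flat fit with activity 30 to 70, or invalid fit; inactive = Opposite direction, flat within 30, or no crossing.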
Just give me one of these, please: active, inactive

-- ask Query: recorded result category for Nc1ccc(C(=O)Nc2ccc(OC(F)(F)C(F)F)c(NC(=O)c3ccc(N)cc3)c2)cc1 in this test
-- reply active

-- ask Query: recorded result category for NC(=O)Nc1ccc(C(=O)OCC(=O)Nc2sccc2C(N)=O)cc1 in this test
-- reply active

-- ask Query: recorded result category for COc1cc(NC(=O)c2csc(N)n2)cc(C(=O)Nc2cccc(C(F)(F)F)c2)c1 in this test
-- reply active

-- ask Query: recorded result category for Cc1[nH]c2ccccc2c1N=Nc1cc(C(=O)O)cc(C(=O)O)c1 in this test
-- reply active

-- ask Query: recorded result category for CO[C@@H](CN(C)S(=O)(=O)c1ccc(Cl)cc1)[C@@H](C)CN([C@H](C)CO)S(=O)(=O)c1cccc(Cl)c1 in this test
-- reply active

-- ask Query: recorded result category for COc1ccc(N(CC(=O)N/N=C/c2ccc(OC)c(OC)c2)S(=O)(=O)c2ccccc2)cc1 in this test
-- reply active

-- ask Query: recorded result category for Oc1cc(O)cc(C=Cc2ccc(O)c(O)c2)c1 in this test
-- reply active

-- ask Query: recorded result category for O=C(N/N=C/c1ccncc1)c1cccc(NC(=O)c2ccc(Cl)cc2)c1 in this test
-- reply active

-- ask Query: recorded result category for COc1ccc(/C(=N\Nc2ccccc2C(=O)O)c2ccccc2)cc1 in this test
-- reply inactive

-- ask Query: recorded result category for COc1ccc(/C=N/Nc2ccc([N+](=O)[O-])cc2)cc1O in this test
-- reply active

====

- EXPERIMENTAL_SYSTEM: Fibroblast growth factor 22 (Homo sapiens) (UniProt Q9HCT0)
- PROTOCOL: FGF22 ligand-induced thermal stabilization – biophysical, thermal shift, cherry-pick, FGF22 synaptogenesis inhibitor project, dose response (AID 687022)
- MEASUREMENT_PARAMETERS: recombinant FGF22 thermal shift, SYPRO orange melting
Activity calls are given as the source filed them.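 Rule for the calls: active = Fitted curve of melting temperature shift crosses the 1.0 threshold at or below the sample's highest valid tested concentration; inconclusive = Flat fit with activity 30 to 70, or invalid fit; inactive = Opposite direction, flat within 30, or no crossing.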
Just give me one of these, please: active, inactive

-- ask Query: recorded result category for CC(=O)c1ccc(OCCCC(=O)Nc2ccc(S(=O)(=O)N3CCOCC3)cc2)cc1 in this test
-- reply inactive

-- ask Query: recorded result category for Cc1cccc(NC(=O)c2ccc(-c3ccccc3[N+](=O)[O-])o2)c1 in this test
-- reply inactive

-- ask Query: recorded result category for COc1cc(NC(=O)C2CCC(CNS(=O)(=O)c3csc(C(N)=O)c3)CC2)cc(OC)c1 (centres undefined) in this test
-- reply active

-- ask Query: recorded result category for O=S(=O)(Nc1cccc(-n2cnnn2)c1)c1ccc(Cl)cc1 in this test
-- reply active

-- ask Query: recorded result category for COc1c(O)ccc(/C=C(\C#N)c2nc3ccccc3[nH]2)c1[N+](=O)[O-] in this test
-- reply active

-- ask Query: recorded result category for O=S(=O)(ON(c1ccccc1)S(=O)(=O)c1ccccc1)c1ccccc1 in this test
-- reply active

-- ask Query: recorded result category for Brc1ccccc1/C=N/Nc1ccccn1 in this test
-- reply active

-- ask Query: recorded result category for N#CC(C#N)=C1NC(N)=C(C#N)C(c2ccccc2)=C1C#N in this test
-- reply active

-- ask Query: recorded result category for COc1ccc(NC(=O)c2[nH]ncc2[N+](=O)[O-])cc1 in this test
-- reply active

-- ask Query: recorded result category for CS(=O)(=O)N1CC(=O)N2[C@H](CO)[C@@H](c3ccc(C#CCc4ccccc4)cc3)[C@H]2C1 in this test
-- reply active

-- ask Query: recorded result category for COc1ccc(CN2C(=O)N(c3ccc(OC)cc3)C(=O)C2CC(=O)Nc2ccccc2)cc1 (centres undefined) in this test
-- reply active

-- ask Query: recorded result category for O=C(N/N=C/c1ccc[nH]1)c1cc2ccccc2cc1O in this test
-- reply active

-- ask Query: recorded result category for CN(NC1OC(=O)c2ccccc21)c1ncc(C(F)(F)F)cc1Cl (centres undefined) in this test
-- reply active

-- ask Query: recorded result category for O=C(Nc1cccnc1)c1ccc(NS(=O)(=O)c2cccc([N+](=O)[O-])c2)cc1 in this test
-- reply active

-- ask Query: recorded result category for Cc1ccc(NC(=O)c2sc3ncn(CC(=O)N4CCN(c5ccccn5)CC4)c(=O)c3c2C)cc1F in this test
-- reply active

-- ask Query: recorded result category for Cc1ccc(S(=O)(=O)N(C)C[C@@H]2Oc3cc(Br)ccc3S(=O)(=O)N([C@@H](C)CO)C[C@H]2C)cc1 in this test
-- reply active

-- ask Query: recorded result category for COc1cccc(NC(=O)N(C)C[C@@H]2Oc3cc(-c4ccccc4F)ccc3S(=O)(=O)N([C@H](C)CO)C[C@@H]2C)c1 in this test
-- reply active

-- ask Query: recorded result category for C[C@@H]1CN([C@@H](C)CO)S(=O)(=O)c2ccc(-c3ccc(F)cc3)cc2O[C@@H]1CN(C)C(=O)Nc1ccccc1F in this test
-- reply inactive

-- ask Query: recorded result category for C[C@@H]1CN([C@@H](C)CO)S(=O)(=O)c2ccc(-c3ccncc3)cc2O[C@@H]1CN(C)C(=O)Nc1ccc(F)cc1 in this test
-- reply active
